Molecular target: T1, CRF2R
T1 sequence (Q13324 whole entry, species assumed, looked up): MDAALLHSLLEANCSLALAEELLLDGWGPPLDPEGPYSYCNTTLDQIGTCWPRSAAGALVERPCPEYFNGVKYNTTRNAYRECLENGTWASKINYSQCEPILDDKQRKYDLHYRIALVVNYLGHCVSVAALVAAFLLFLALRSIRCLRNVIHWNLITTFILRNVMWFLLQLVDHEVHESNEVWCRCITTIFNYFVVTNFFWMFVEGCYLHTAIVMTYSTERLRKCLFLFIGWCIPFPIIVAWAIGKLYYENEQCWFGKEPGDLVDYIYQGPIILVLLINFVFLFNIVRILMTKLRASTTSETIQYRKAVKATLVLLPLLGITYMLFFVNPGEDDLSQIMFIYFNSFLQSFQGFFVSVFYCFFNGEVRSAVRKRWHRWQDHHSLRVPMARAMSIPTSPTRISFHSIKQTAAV
Assay: cell-based or functional assay
Ends that are not written are not given here.

binder	CRF2R EC50
ZGPPISIDLPTPLLRKMIEIEKQEKEKQQAANNRLLLDTI (C-terminal amide) [SEQ ID NO 52]	> 100 nM
IVLSLDVPIGLLQEVLEMARAEQLAQQAHSNRKLMEII-NH2 [SEQ ID NO 165]	> 100 nM
ZGPPISIDLPISLLRKMIEIEKQEKEKQQAANNRLLLDTI (C-terminal amide) [SEQ ID NO 53]	> 100 nM
